Taken from paper PMC12040169.

# EXPERIMENTAL DETAILS: in vitro
# CONDITION INFO: human, hela cells, % viability
Listing of recorded viability at 28.5 h, 10 µM by entry.
RECORDED ENDPOINT: viability at 28.5 h, 10 µM

>>> result("Cn1nc2n(c1=O)CC(C(=O)NCCN1CCCc3ccccc31)CC2 (stereo not drawn) [CBK307206]")
"93.5%"
>>> result("N#C/C(=C\\c1cn(-c2ccccc2)nc1-c1cccc(S(=O)(=O)N2CCCC2)c1)c1nc2ccccc2c(=O)[nH]1 [CBK266296]")
"91.9%"
>>> result("CC(NC(=O)CC(C)n1cccn1)c1cc2cc(Cl)ccc2o1 (stereo not drawn) [CBK281432]")
"92.6%"
>>> result("O=C(NCc1ccco1)c1cc(-c2ccc3[nH]ccc3c2)cnc1NCCOc1ccccc1 [CBK106388]")
"89.9%"
>>> result("COCc1cn(C2CCN(c3cc(-n4cc(C)cn4)ncn3)CC2)nn1 [CBK307388]")
"92.9%"
>>> result("CC1CCN(Cc2ccc(-c3nnn(CC(=O)NCc4ccc(S(N)(=O)=O)cc4)n3)cc2)CC1 [CBK144141C]")
"93.3%"
>>> result("O=C(/C=C/c1ccccc1)NC(=S)Nc1cccc(-c2nc3ncccc3o2)c1 [CBK263742]")
"103%"
>>> result("COc1ccc2c(c1)CCC1(C)C2=C(C(=O)O)CC1O (stereo not drawn) [CBK022814]")
"103%"
>>> result("Cc1cc(O)cc(C2CCCN(C(=O)CC3CCCC3)C2)n1 (stereo not drawn) [CBK283422]")
"107%"

----------
# EXPERIMENTAL DETAILS: in vitro
# CONDITION INFO: human, hela cells, % viability
Listing of recorded viability at 28.5 h, 10 µM by entry.
RECORDED ENDPOINT: viability at 28.5 h, 10 µM (%)

>>> quantitative_result("CSc1nc(O)c(C(c2ccc(Cl)cc2)c2c(O)nc(SC)nc2O)c(O)n1")
105
>>> quantitative_result("O=[N+]([O-])c1ccccc1S(=O)(=O)N1CCN(S(=O)(=O)c2ccc3ccccc3c2)CC1")
107
>>> quantitative_result("CCCC(C(=O)O)N1C(=O)C(=Cc2ccc(-c3ccc(C(=O)OCC)cc3)o2)SC1=S (centres unmarked)")
80.6
>>> quantitative_result("CC(C)c1ccc(C(C)NC(=O)Cn2cc(C(=O)NC3CCCCC3)ccc2=O)cc1 (centres unmarked)")
100
>>> quantitative_result("NC(=O)N/N=C/c1cc(Br)cs1")
81.8
>>> quantitative_result("CC(=O)Nc1ccc(-c2nc3ncccc3o2)cc1C")
91.1
>>> quantitative_result("O=C(O)c1cccc(NS(=O)(=O)Cc2ccccc2)c1")
96.4
>>> quantitative_result("CC1c2ccsc2CCN1C(=O)COc1cccc(Br)c1 (centres unmarked)")
91.9
>>> quantitative_result("O=C(CSc1nnnn1CC1CCCO1)N1CC=C(c2ccccc2)CC1 (centres unmarked)")
82
>>> quantitative_result("CCOc1ccc(C(=O)NC(=S)Nc2ncccc2C)cc1[N+](=O)[O-]")
98.3
>>> quantitative_result("CC(CCCC(C)(C)O)Nc1cncc(-c2ccc(C(N)=O)cc2)n1 (centres unmarked)")
103
>>> quantitative_result("O=C(NCCS(=O)(=O)c1ccccc1)c1cnc(-c2ccc(Cl)cc2)c(-c2ccncc2)c1")
100
>>> quantitative_result("COc1cccc(C(=O)Nc2nnc(-c3ccco3)o2)c1")
106
>>> quantitative_result("COc1ccc([C@@]23CC[C@H](NC(=O)Nc4cccc(C(F)(F)F)c4F)C[C@@H]2CN(C)C3)cc1OC [CBK063200A]")
92.3
>>> quantitative_result("Cc1ccc(SCCNS(=O)(=O)c2ccc(C)cc2)cc1")
108
>>> quantitative_result("O=C(NC(c1ccccc1)c1ccccc1)c1ccc(Cl)cc1[N+](=O)[O-]")
84.1
>>> quantitative_result("O=c1[nH]c2ncc(-c3ccsc3)nc2n1-c1ccc2[nH]ccc2c1")
108
>>> quantitative_result("CC1CCC(C(=O)Nc2ccc(C(=O)O)cc2)CC1 (centres unmarked)")
94.8
>>> quantitative_result("Cc1cnc2[nH]c(C(F)(F)F)c(CN3CCOCC3)c2c1")
85.7
>>> quantitative_result("O=C(NCCC1=CCCCC1)Nc1ccc2ccccc2c1")
104
>>> quantitative_result("O=C(C1=Cc2ccccc2OC1)N1CCC(c2ccncc2)CC1")
104
>>> quantitative_result("O=S(=O)(NCc1ccccn1)c1ccc(Cl)c(Cl)c1Cl")
95.6
>>> quantitative_result("O=C(Nc1ccc2oc(-c3cccnc3)nc2c1)c1cc([N+](=O)[O-])ccc1N1CCOCC1")
95
>>> quantitative_result("O=C(O)c1ccccc1NC(=O)N1CCc2[nH]cnc2C1c1cccc(F)c1 (centres unmarked)")
93.7
>>> quantitative_result("CCCN1CCCN(c2ccc(-n3ccc(C)n3)nn2)CC1")
107
>>> quantitative_result("COc1ccc(C(C)C)cc1-c1cncc(N2CCN(Cc3ccccn3)CC2)n1")
88.6
>>> quantitative_result("CCC(CN1CCOCC1)NC(=O)Cc1c(C)[nH]c2ccc(F)cc12 (centres unmarked)")
92.6
>>> quantitative_result("COc1ccc([C@@]23CCC(NC(=S)NCc4ccccc4)C[C@@H]2N(Cc2ccccc2)CC3)cc1 (some centres unmarked)")
88
>>> quantitative_result("O=C(Cc1ccc2c(c1)CCCO2)NCc1ccccc1-n1ccnc1")
86.6
>>> quantitative_result("O=c1[nH]cc(-c2ccc(F)cc2)cc1CNCc1cccc(F)c1")
94.6
>>> quantitative_result("O=c1c(-c2ccccc2)c(O)cc(-c2ccccc2)n1Cc1ccccc1")
115
>>> quantitative_result("CCC(=O)NC(=S)Nc1cccc(NC(=O)c2cccc(Cl)c2)c1")
93.6
>>> quantitative_result("Cc1ccc(-n2c(C)cc(C(=O)CSc3n[nH]c(=O)n3C3CC3)c2C)cc1C")
92.3
>>> quantitative_result("Cc1ccc(NC(C(N)=O)c2c(C)[nH]c(=O)[nH]c2=O)cc1 (centres unmarked)")
98.4
>>> quantitative_result("O=C(CSCc1nc(O)c2c3c(sc2n1)CCCC3)Nc1ccc(F)cc1")
106
>>> quantitative_result("Cc1ccc(C(=O)O)cc1N1C(=O)c2ccc(S(=O)(=O)c3ccc(C(=O)O)cc3)cc2C1=O")
96.1
>>> quantitative_result("CCN1CCc2cc(CN3CCCC(Cn4ccnc4C)C3)ccc21 (centres unmarked)")
96.9
>>> quantitative_result("O=C(/C=C/c1ccccc1Cl)NCCc1ccccc1")
97.5

----------
# EXPERIMENTAL DETAILS: in vitro
# CONDITION INFO: human, hela cells, % viability
RECORDED ENDPOINT: viability at 28.5 h, 10 µM (%)

>>> quantitative_result("Cn1c(N2CC[C@H](O)C2)nc2cc(C(=O)NCC3CC3)ccc21")
92.1
>>> quantitative_result("CCn1ccnc1CN1CCOC(Cc2ccccc2Cl)C1 (centres unmarked)")
94.5
>>> quantitative_result("COc1ccc(Cl)cc1NC(=O)CN(C1CCCCC1)S(=O)(=O)c1ccccc1")
108
>>> quantitative_result("O=C(CN1CCN(Cc2ccccc2)CC1)Nc1ccc(C(F)(F)F)cc1Cl")
103
>>> quantitative_result("Cc1nc2cccnc2n1C1CCN(C(=O)NC2CCCCC2)CC1")
88.5
>>> quantitative_result("Cc1ccc(S(=O)(=O)NCCNc2ccc(Cl)cc2[N+](=O)[O-])cc1")
104
>>> quantitative_result("COC(=O)CCc1ccc(Oc2ncc(C(F)(F)F)cc2Cl)cc1")
111
>>> quantitative_result("Cc1ccc(S(=O)(=O)NCC(=O)N2CCN(Cc3ccccc3)CC2)cc1")
104
>>> quantitative_result("Cc1ccc(C(=O)O/N=C(\\N)c2ccccn2)cc1")
90.9
>>> quantitative_result("O=C(NCc1cccc2ccccc12)c1ccccc1-n1cccc1")
99.8
>>> quantitative_result("Cc1ccc(N(CC(O)CN2C(=O)NC(C)(C)C2=O)S(=O)(=O)c2ccccc2)cc1 (centres unmarked)")
99.2
>>> quantitative_result("Cc1ccc(CN(Cc2nccn2C)C2CC(C)(C)NC(C)(C)C2)o1")
112
>>> quantitative_result("CC(=O)N(C)c1ccc(NC(=O)/C=C/C(=O)O)cc1")
87
>>> quantitative_result("Cc1ccc(N2CC(C(=O)Nc3ccc(S(=O)(=O)NCC4CCCO4)cc3)CC2=O)cc1 (centres unmarked)")
91.7
>>> quantitative_result("O=C(CSc1nnc(-c2ccc(Cl)cc2Cl)[nH]1)Nc1ccc(F)cc1")
96.4
>>> quantitative_result("FC(F)(F)c1cccc(-c2nccnc2NCCCN2CCOCC2)c1")
97.6
>>> quantitative_result("O=[N+]([O-])c1ccc(N2CCN(S(=O)(=O)N3CCCC3)CC2)c(Cl)c1")
102
>>> quantitative_result("Cc1csc(C(Cc2ccsc2)NC(=O)CC2CCCO2)n1 (centres unmarked)")
92.1
>>> quantitative_result("CCCC/C=C/c1cncc(NC2CCC(O)CC2)n1 (centres unmarked)")
105
>>> quantitative_result("O=C(O)CCn1c(SCCc2ccccc2)nc2ccccc21")
107
>>> quantitative_result("CCOC(=O)Cn1nc(CC)n2c(cc3sccc32)c1=O")
80.3
>>> quantitative_result("CC1(C)Cc2c(sc(NC(=O)c3ccccc3Cl)c2C(=O)O)CO1")
99.4
>>> quantitative_result("NS(=O)(=O)c1ccc(NC(=O)CN2CCN(c3ccc([N+](=O)[O-])cc3)CC2)cc1")
96.8
>>> quantitative_result("COc1ccc(CNCCN2CCOCC2)c(OC)c1 [CBK278180C]")
90.1
>>> quantitative_result("O=c1[nH]nc2c(Sc3cccc(F)c3)nccn12")
90.4
>>> quantitative_result("Cc1onc(-c2ccccc2)c1C(=O)NC(=S)Nc1sc2c(c1C#N)CCC2")
89.1
>>> quantitative_result("COc1ccc([C@H](NC(=O)C2CCN(C(=O)OCc3ccccc3)CC2)c2ccccc2C)cn1")
92.9
>>> quantitative_result("COC(=O)N1CCc2ccc(N3C[C@H](CNC(C)=O)OC3=O)cc2CC1")
79.8
>>> quantitative_result("CCOC(=O)c1cccnc1-c1cc2ccccc2o1")
99.7
>>> quantitative_result("CC1CCCC(C)N1C(=O)C1CCCCC1C(=O)O (centres unmarked)")
93.2
>>> quantitative_result("COc1cc(NC(=S)N2CCN(c3cc(Cl)ccc3C)CC2)cc(OC)c1")
100
>>> quantitative_result("NC(=O)c1ccc2[nH]c(-c3cscn3)nc2c1")
86
>>> quantitative_result("Cn1ccnc1C(O)C1CCN(C(=O)NCCc2cccc(F)c2)CC1 (centres unmarked)")
80.5
>>> quantitative_result("CCOc1cc(/C=C2\\SC(=N)NC2=O)ccc1OC(=O)c1cccs1")
107
>>> quantitative_result("CCc1nc(CNc2ccc(NC(C)=O)cc2Cl)cs1")
102
>>> quantitative_result("CC(=O)Nc1ccc(S(=O)(=O)Oc2ccc(C3C4=C(CC(C)(C)CC4=O)N=C4c5ccccc5C(=O)C43)cc2)cc1 (centres unmarked)")
93.7
>>> quantitative_result("O=C(N[C@H]1CO[C@H]2[C@@H]1OC[C@@H]2Nc1nccc(-c2cccc(F)c2)n1)C1CC1")
99.2
>>> quantitative_result("Cn1c(=O)c2c(nc(CN3CCOCC3)n2CCN2CCOCC2)n(C)c1=O")
106
